study.system: PAR2 (F2RL1) (Homo sapiens, UniProt P55085)
test.details: β-arrestin recruitment, DiscoverX profiling service, PAR2
measurement.context: Antagonist format, read-out: RC50 (IC50)
pIC50: −log10 of the molar value.
attribute.measured: pIC50

Prompt: Consider the compound `CNC(=O)[C@H]1CC[C@@H](NC(=O)[C@H](CC2CCCCC2)NC(=O)c2cn(Cc3ccccc3)nn2)c2ccccc21` tested on PAR2 (F2RL1) (Homo sapiens, UniProt P55085); state its pIC50.
Completion: < 4.30

====

study.system: PAR1 (F2R) (Homo sapiens, UniProt P25116)
Sequence (P25116 22-425): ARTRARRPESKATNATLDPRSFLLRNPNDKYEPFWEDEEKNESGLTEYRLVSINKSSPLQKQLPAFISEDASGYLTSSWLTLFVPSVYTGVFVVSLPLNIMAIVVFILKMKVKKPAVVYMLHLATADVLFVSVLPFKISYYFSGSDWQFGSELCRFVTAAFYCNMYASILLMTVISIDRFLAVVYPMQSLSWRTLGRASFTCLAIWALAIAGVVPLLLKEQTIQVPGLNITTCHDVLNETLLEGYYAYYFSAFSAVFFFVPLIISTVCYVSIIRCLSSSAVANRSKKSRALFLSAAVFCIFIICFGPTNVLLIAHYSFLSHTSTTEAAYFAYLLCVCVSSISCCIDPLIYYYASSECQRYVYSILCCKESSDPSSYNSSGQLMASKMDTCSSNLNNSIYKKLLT
test.details: β-arrestin recruitment, DiscoverX profiling service, PAR1
measurement.context: Arrestin, Agonist format, F2R; read-out: RC50 (EC50)
pEC50: −log10 of the molar value.
attribute.measured: pEC50

Prompt: Consider the compound `CNC(=O)[C@H]1CC[C@@H](NC(=O)[C@H](CC2CCCCC2)NC(=O)c2cn(Cc3ccccc3)nn2)c2ccccc21` tested on PAR1 (F2R) (Homo sapiens, UniProt P25116); state its pEC50.
Completion: < 4.30

====

study.system: UniProt P55085
test.details: Ca^2+ flux assay (FLIPR), inhibition of SLIGRL-NH2 activation in 1321N1-hPAR2 cells
Format: cell-based
measurement.context: Ca^2+ assay; earlier manuscript version quoted by reviewer; read-out: IC50
attribute.measured: pIC50
pIC50 field: float, defined as -log10 of concentration (mol/L).

Prompt: Report measured pIC50; entry is `C[C@@H](C1CCCCC1)n1c(-c2cc3c(cc2Br)OCO3)nc2cc(C(=O)Nc3ccc(C#N)cc3)ccc21`
Completion: 8.55

====

The following compounds are shown together with reported IC50 values.
study.system: hPAR2 (Homo sapiens, UniProt P55085)
Sequence (P55085 26-397): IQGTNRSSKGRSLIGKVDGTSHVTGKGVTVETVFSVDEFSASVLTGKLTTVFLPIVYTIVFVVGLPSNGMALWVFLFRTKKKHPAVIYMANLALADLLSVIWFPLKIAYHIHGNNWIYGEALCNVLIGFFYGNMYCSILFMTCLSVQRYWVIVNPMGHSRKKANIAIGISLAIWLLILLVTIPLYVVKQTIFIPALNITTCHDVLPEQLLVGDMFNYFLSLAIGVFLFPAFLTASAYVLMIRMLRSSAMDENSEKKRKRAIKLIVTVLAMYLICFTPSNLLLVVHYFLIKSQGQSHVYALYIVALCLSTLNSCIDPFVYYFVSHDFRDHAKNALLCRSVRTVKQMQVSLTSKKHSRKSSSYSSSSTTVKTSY
test.details: β-arrestin-2 recruitment assay, inhibition of SLIGRL-NH2 in U2OS-hPAR2 cells
Format: cell-based
measurement.context: SLIGRL-NH2, U2OS-hPAR2; mean ± s.e.m.; read-out: β-arrestin (hPAR2) pIC50 (converted)
Output spec: scalar in nM, unitless text.

Use these answered entries as a reference point.
C[C@@H](C1CCCCC1)n1c(-c2cc3c(cc2Br)OCO3)nc2cc(C(=O)Nc3ccc(C#N)cc3)ccc21 [AZ3451] = 87.1
C[C@@H](C1CCCCC1)n1c(-c2cc3c(cc2Br)OCO3)nc2cc(C(=O)Nc3ccccc3)ccc21 [AZ8935] = 380
C[C@@H](C1CCOCC1)n1c(-c2cc3c(cc2Br)OCO3)nc2cc(C(=O)Nc3ccc(C#N)cc3)ccc21 [AZ7126] = 63.1

Continue with the compound presented below.
Prompt: Report measured IC50; entry is C[C@@H](C1CCCCC1)n1c(-c2cc3c(cc2Br)OCO3)nc2cc(C(=O)Nc3ccncc3)ccc21 [AZ2623]
Completion: 490

Reference for the values: paper PMC7747594
